Sourced from patent US20260139048A1

Target: T1, His-tagged cynomolgus TIGIT (cynomolgus, UniProt A0A7N9I9V4 89-209)
T1 construct: SPR analyte; also called cynomolgus TIGIT protein; not shown: His tag
T1 sequence (A0A7N9I9V4 entry or part of it): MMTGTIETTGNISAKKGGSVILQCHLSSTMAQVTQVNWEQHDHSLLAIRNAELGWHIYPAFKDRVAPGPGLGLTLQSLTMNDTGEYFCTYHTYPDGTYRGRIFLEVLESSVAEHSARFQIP
Test: SPR (Biacore T200), antibody captured, His-tagged TIGIT analyte
parameter.measured: Kd
Phrase the answer as number then unit, nothing more needed.

binder	result
TIGIT-15 chimeric antibody (antibody, human IgG1, kappa, V domains shown, Full-length chimeric IgG1 kappa) VH: DVQLVESGGGLVQPGGSLKLSCAASGFTFSSYGMSWVRQTPDRRLELVATINNNGGSTYYPDSVKGRFTISRDNARNTLYLQMSSLKSEDTAMYYCATRTGTEILGFDFWGQGTTLTVSS VL: DIVLTQSHKFMSTSLGDRVSITCKASQDVSTAVAWYQQKPGQSPKLLIYWASSRHTGVPDRFTGSRSGPDYTLTISSVQAEDLALYYCQQQYSTPWTFGGGTKLEIKR	1.1 nM

API: the following record is the query input.
Q. Note down Kd recorded for TIGIT-18 chimeric antibody (antibody, human IgG1, kappa, V domains shown, Full-length chimeric IgG1 kappa) VH: QVQLQQPGAELVRPGASVKLSCKASGYSFTSYWMNWVKQRPGQGHEWIGMIHLSNSETRLNQNFLDKATLTVDKSSSTVYLQLSSPTSEDSAVYYCARERDYYGSSYFDYWGQGTTLTVSS VL: DIVMTQSPASLVVSLGQRATISCRTSQSVSTSSYSYMHWYQQKPGQPPKLLIKNASNLESGVPARFSASGSGTDFTLNIHPVEEEDAATYYCQHSWEIPRTFGGGTKLEIKR
A. 4.4 nM
